Molecular target: mouse SMO^WT (Mus musculus)
Construct: expressed in transfected cells
Sequence (P56726 33-793): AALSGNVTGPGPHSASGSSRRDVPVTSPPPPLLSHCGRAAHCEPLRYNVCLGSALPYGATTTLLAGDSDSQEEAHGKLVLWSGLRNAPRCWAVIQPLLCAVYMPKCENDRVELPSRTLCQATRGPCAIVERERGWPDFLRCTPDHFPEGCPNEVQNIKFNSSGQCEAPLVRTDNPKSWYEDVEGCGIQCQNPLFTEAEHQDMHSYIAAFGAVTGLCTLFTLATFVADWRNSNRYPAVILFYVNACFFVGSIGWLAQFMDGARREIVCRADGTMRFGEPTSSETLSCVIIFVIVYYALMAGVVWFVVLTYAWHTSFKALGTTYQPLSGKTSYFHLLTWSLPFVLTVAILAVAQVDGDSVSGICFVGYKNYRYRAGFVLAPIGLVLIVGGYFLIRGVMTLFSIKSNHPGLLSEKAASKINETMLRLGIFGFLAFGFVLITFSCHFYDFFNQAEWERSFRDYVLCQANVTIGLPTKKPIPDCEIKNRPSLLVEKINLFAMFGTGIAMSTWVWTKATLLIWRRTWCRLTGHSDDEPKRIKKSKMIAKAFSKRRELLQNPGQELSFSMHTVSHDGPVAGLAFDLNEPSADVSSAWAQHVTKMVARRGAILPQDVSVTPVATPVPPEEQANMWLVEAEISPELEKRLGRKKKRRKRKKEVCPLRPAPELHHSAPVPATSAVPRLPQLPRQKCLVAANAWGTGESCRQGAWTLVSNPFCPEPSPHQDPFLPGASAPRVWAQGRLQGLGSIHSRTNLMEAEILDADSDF
Test: Mouse assay: Gli1 qPCR in MEF cells stably expressing mouse SMO WT; note: test concentration or dose not given here
Type: cell-based
Conditions: mSHh-treated, 24 hours, percentage Gli1 inhibition
Protocol: Cell culture. All materials were purchased from Sigma-Aldrich, unless otherwise stated. Compound treatment. […] Cell lysis and one-step qPCR. […] Real-time PCR amplification was detected using the Bio-Rad CFX384 Touch PCR system. […] Real-time data were analysed using the CFX Maestro software (Bio-Rad) and obtained expression values were converted to percentage Gli1 inhibition by normalising to the average Gli1 expression of mSHh-treated control samples.
measurement label: Mouse WT % Inh (%)
I only need the number, in %, no unit after it.

Query: Please supply the value of reported Mouse WT % Inh for the item Cc1oc(-c2ccc(NC(=O)c3ccc(Cl)c(CN4CCS(=O)(=O)CC4)c3)cc2)nc1C1CC1 [Example 4-4]
Result: 99.5

Query: Please supply the value of reported Mouse WT % Inh for the item O=C(Nc1ccc(-c2cc(C3CC3)no2)cc1)c1cccc(CN2CCS(=O)(=O)CC2)c1 [Example 4-6]
Result: 99.0

Query: Please supply the value of reported Mouse WT % Inh for the item Cc1ccc(Cc2n[nH]c(-c3ccc(NC(=O)c4cccc(CN5CCS(=O)(=O)CC5)c4)cc3)n2)cc1C [Example 3-25]
Result: 98.5

Query: Please supply the value of reported Mouse WT % Inh for the item Cc1oc(-c2ccc(NC(=O)c3cccc(CN4CCS(=O)(=O)CC4)c3)cc2)nc1C1CC1 [Example 4-2]
Result: 97.5

Query: Please supply the value of reported Mouse WT % Inh for the item O=C(Nc1ccc(-c2nc(Cc3ccccc3F)n[nH]2)cc1)c1cccc(CN2CCS(=O)(=O)CC2)c1 [Example 3-19]
Result: 99.1

Query: Please supply the value of reported Mouse WT % Inh for the item O=C(Nc1ccc(-c2nc(-c3cccc(Cl)c3)n[nH]2)cc1)c1cccc(CN2CCS(=O)(=O)CC2)c1 [Example 3-11]
Result: 98.4

Query: Please supply the value of reported Mouse WT % Inh for the item O=C(Nc1ccc(-c2cc(C3CC3)[nH]n2)nc1)c1ccc(Cl)c(CN2CCS(=O)(=O)CC2)c1 [Example 5-3]
Result: 98.6

###

Molecular target: mouse SMO^WT (Mus musculus)
Construct: expressed in transfected cells
Assay: Mouse assay: Gli1 qPCR in MEF cells stably expressing mouse SMO WT; note: test concentration or dose not given here
Format: cell-based
Details: mSHh-treated, 24 hours, percentage Gli1 inhibition
Task for the reader: assign each of the following compounds its reported Mouse WT % Inh.

Query: Please supply the value of reported Mouse WT % Inh for the item O=C(Nc1ccc(-c2noc(Cc3ccc(F)cc3)n2)cc1)c1cccc(CN2CCS(=O)(=O)CC2)c1 [Example 4-17]
Result: 97.2%

Query: Please supply the value of reported Mouse WT % Inh for the item O=C(Nc1ccc(-c2nc(CCc3ccccc3)n[nH]2)cc1)c1cccc(CN2CCS(=O)(=O)CC2)c1 [Example 3-31]
Result: 98.6%

Query: Please supply the value of reported Mouse WT % Inh for the item O=C(Nc1ccc(-c2nc(C3CC3)n[nH]2)cc1)c1cccc(CN2CCS(=O)(=O)CC2)c1 [Example 3-3]
Result: 96.6%

Query: Please supply the value of reported Mouse WT % Inh for the item O=C(Nc1ccc(-c2nc(-c3ccc(C(F)(F)F)s3)n[nH]2)cc1)c1cccc(CN2CCS(=O)(=O)CC2)c1 [Example 3-16]
Result: 99.4%

###

Biological target: human SMO W535L (Homo sapiens, UniProt Q99835, W535L)
Construct: expressed in transfected cells; host or cells: SMO knock-out mouse embryonic fibroblasts (MEF SMO-/-), BacMam transduction
Sequence (Q99835 28-787 W535L): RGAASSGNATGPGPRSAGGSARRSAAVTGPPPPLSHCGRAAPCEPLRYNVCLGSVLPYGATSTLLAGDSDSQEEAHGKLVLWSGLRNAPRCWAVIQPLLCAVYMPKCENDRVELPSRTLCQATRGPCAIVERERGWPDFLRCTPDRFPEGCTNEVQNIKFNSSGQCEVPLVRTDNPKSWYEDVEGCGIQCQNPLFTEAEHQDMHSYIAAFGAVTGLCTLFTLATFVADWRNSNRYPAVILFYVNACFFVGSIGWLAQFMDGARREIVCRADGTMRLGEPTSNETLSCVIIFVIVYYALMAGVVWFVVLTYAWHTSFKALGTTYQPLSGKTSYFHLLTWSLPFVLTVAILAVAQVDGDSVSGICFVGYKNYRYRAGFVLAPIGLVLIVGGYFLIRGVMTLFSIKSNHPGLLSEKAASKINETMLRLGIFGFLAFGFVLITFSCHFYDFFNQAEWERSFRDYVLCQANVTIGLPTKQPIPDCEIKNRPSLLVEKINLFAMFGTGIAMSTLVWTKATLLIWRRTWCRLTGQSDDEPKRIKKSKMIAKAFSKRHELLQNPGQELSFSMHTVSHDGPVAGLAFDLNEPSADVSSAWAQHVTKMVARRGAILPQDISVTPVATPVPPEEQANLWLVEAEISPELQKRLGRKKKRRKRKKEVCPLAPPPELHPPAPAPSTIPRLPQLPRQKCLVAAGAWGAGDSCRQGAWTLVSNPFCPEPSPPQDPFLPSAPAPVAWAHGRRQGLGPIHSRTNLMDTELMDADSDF
Assay: Human assay: Gli1 qPCR in MEF SMO-/- cells BacMam-transduced with hSMO W535L variant; note: test concentration or dose not given here
Format: cell-based
Settings: mSHh-treated, 24 hours, percentage Gli1 inhibition
measurement label: Human W535L % Inh (%)
I only need the number, in %, no unit after it.

Query: Please supply the value of reported Human W535L % Inh for the item O=C(Nc1ccc(-c2noc(Cc3ccc(F)cc3)n2)cc1)c1cccc(CN2CCS(=O)(=O)CC2)c1
Result: 102.7

Query: Please supply the value of reported Human W535L % Inh for the item Cn1nc(-c2ccc(NC(=O)c3cccc(CN4CCS(=O)(=O)CC4)c3)cn2)cc1C1CC1
Result: 85.9

Query: Please supply the value of reported Human W535L % Inh for the item Cc1oc(-c2ccc(NC(=O)c3cccc(CN4CCS(=O)(=O)CC4)c3)cc2)nc1C1CC1
Result: 104.6

Query: Please supply the value of reported Human W535L % Inh for the item O=C(Nc1ccc(-c2nc(C3CC3)n[nH]2)cc1)c1cc(F)cc(CN2CCS(=O)(=O)CC2)c1
Result: 79.1

Query: Please supply the value of reported Human W535L % Inh for the item O=C(Nc1ccc(-c2nc(C3CC3)n[nH]2)cc1)c1cccc(CN2CCS(=O)(=O)CC2)c1
Result: 88.4

Query: Please supply the value of reported Human W535L % Inh for the item CC1CN(Cc2cccc(C(=O)Nc3ccc(-c4nc(C5CC5)n[nH]4)cc3)c2)CCS1(=O)=O (centres unmarked)
Result: 78.2

Query: Please supply the value of reported Human W535L % Inh for the item CC(C)c1noc(-c2ccc(NC(=O)c3cccc(CN4CCS(=O)(=O)CC4)c3)cc2)n1
Result: 77.8

Query: Please supply the value of reported Human W535L % Inh for the item Cc1c(-c2ccc(NC(=O)c3ccc(Cl)c(CN4CCS(=O)(=O)CC4)c3)cc2)n[nH]c1C1CC1
Result: 89.9

###

Target: mouse SMO^D473H (Mus musculus, UniProt P56726, D477H)
Construct: expressed in transfected cells
Sequence (P56726 33-793 D477H): as the sequence (P56726 33-793) above, with D445H counted along it
Test: Mouse assay: Gli1 qPCR in MEF cells stably expressing mouse SMO D473H; for Mouse D473H % Inh: test concentration or dose not given here
Assay type: cell-based
Details: mSHh-treated, 24 hours, percentage Gli1 inhibition
Task for the reader: assign each of the following molecules its reported Mouse D473H % Inh.
I only need the number, in %, no unit after it.

Query: Please report the measured Mouse D473H % Inh for Cc1nc(-c2ccc(NC(=O)c3cccc(CN4CCS(=O)(=O)CC4)c3)cc2)oc1C tested on mouse SMO^D473H (Mus musculus, UniProt P56726, D477H).
Result: 98.6

Query: Please report the measured Mouse D473H % Inh for Cn1nc(-c2ccc(NC(=O)c3ccc(Cl)c(CN4CCS(=O)(=O)CC4)c3)cc2)cc1C1CC1 tested on mouse SMO^D473H (Mus musculus, UniProt P56726, D477H).
Result: 98.1

Query: Please report the measured Mouse D473H % Inh for O=C(Nc1ccc(-c2nc(-c3ccccn3)n[nH]2)cc1)c1cccc(CN2CCS(=O)(=O)CC2)c1 tested on mouse SMO^D473H (Mus musculus, UniProt P56726, D477H).
Result: 97.0

###

Task for the reader: assign each of the following molecules its reported IC50.
Biological target: mouse SMO^D473H (Mus musculus, UniProt P56726, D477H)
Construct: expressed in transfected cells
Experiment: Mouse assay: Gli1 qPCR in MEF cells stably expressing mouse SMO D473H
Type: cell-based
Conditions: mSHh-treated, 24 hours, Gli1 inhibition by qPCR, read-out: Mouse D473H pIC50 (converted)
I only need the number, in nM, no unit after it.

Query: Please supply the value of reported IC50 for the item CC(C)(C)c1n[nH]c(-c2ccc(NC(=O)c3cccc(CN4CCS(=O)(=O)CC4)c3)cc2)n1
Result: 501

Query: Please supply the value of reported IC50 for the item Cc1oc(-c2ccc(NC(=O)c3cccc(CN4CCS(=O)(=O)CC4)c3)cc2)nc1C1CC1
Result: 2.51

Query: Please supply the value of reported IC50 for the item Cc1oc(-c2ccc(NC(=O)c3ccc(Cl)c(CN4CCS(=O)(=O)CC4)c3)cn2)nc1C1CC1
Result: 7.94

Query: Please supply the value of reported IC50 for the item O=C(Nc1ccc(-c2nc(C3CC3)n[nH]2)cc1)c1cccc(CN2CCS(=O)(=O)CC2)c1
Result: 158

Query: Please supply the value of reported IC50 for the item CC(C)c1n[nH]c(-c2ccc(NC(=O)c3cccc(CN4CCS(=O)(=O)CC4)c3)cc2)n1.Cl
Result: 158

Query: Please supply the value of reported IC50 for the item O=C(Nc1ccc(-c2noc(Cc3ccc(F)cc3)n2)cc1)c1cccc(CN2CCS(=O)(=O)CC2)c1
Result: 7.94

Query: Please supply the value of reported IC50 for the item COc1ccc(-c2n[nH]c(-c3ccc(NC(=O)c4cccc(CN5CCS(=O)(=O)CC5)c4)cc3)n2)cc1
Result: 200

Query: Please supply the value of reported IC50 for the item O=C(Nc1ccc(-c2noc(C3CCCC3)n2)cc1)c1cccc(CN2CCS(=O)(=O)CC2)c1
Result: 200

Query: Please supply the value of reported IC50 for the item O=C(Nc1ccc(-c2nc(C3CC3)n[nH]2)cc1)c1ccc(Cl)c(CN2CCS(=O)(=O)CC2)c1
Result: 158

Query: Please supply the value of reported IC50 for the item O=C(Nc1ccc(-c2nc(C3CCCCC3)n[nH]2)cc1)c1cccc(CN2CCS(=O)(=O)CC2)c1
Result: 200

Query: Please supply the value of reported IC50 for the item O=C(Nc1ccc(-c2nc(Cc3cc(Cl)ccc3Cl)n[nH]2)cc1)c1cccc(CN2CCS(=O)(=O)CC2)c1
Result: 501

Query: Please supply the value of reported IC50 for the item Cn1nc(-c2ccc(NC(=O)c3cccc(CN4CCS(=O)(=O)CC4)c3)cn2)cc1C1CC1
Result: 126

Query: Please supply the value of reported IC50 for the item CN(C)c1nnc(-c2ccc(NC(=O)c3cccc(CN4CCS(=O)(=O)CC4)c3)cc2)o1
Result: 316

Query: Please supply the value of reported IC50 for the item O=C(Nc1ccc(-c2nc(-c3ccc(COc4ccccc4F)cc3)n[nH]2)cc1)c1cccc(CN2CCS(=O)(=O)CC2)c1
Result: 251

Query: Please supply the value of reported IC50 for the item O=C(Nc1ccc(-c2nc(-c3cccc(Oc4nccs4)c3)n[nH]2)cc1)c1cccc(CN2CCS(=O)(=O)CC2)c1
Result: 631
